Target: CDK4/Cyclin D3 (Homo sapiens) (UniProt P11802+P30281)
Assay: Inhibition of recombinant full-length human CDK4/cyclinD3 at 1 uM using Rb fragment as substrate measured after 40 mins in presence of [gamma33P]ATP by scintillation counting method relative to control
Format: protein-complex assay
Reported inhibition values follow for various compounds
Answer in %, number only, no unit symbol.

// below: answered compounds
> print(dat)
                                item.smiles  result.type  unit  numeric.readout
1  CN(C)C(=O)c1cc2cnc(Nc3ccc(C(=O)NCCCCCN=C=S)cn3)nc2n1C1CCCC1   inhibition     %               94
2  CN(C)C(=O)c1cc2cnc(Nc3ccc(C(=O)NCCCCCCN=C=S)cc3O)nc2n1C1CCCC1   inhibition     %               45

input: Give its inhibition value. Item: CN(C)C(=O)c1cc2cnc(Nc3ccc(C(=O)NCCCN=C=S)cn3)nc2n1C1CCCC1
output: 95

input: Entry to check: CN(C)C(=O)c1cc2cnc(Nc3ccc(NC(=O)CCCCN=C=S)cc3)nc2n1C1CCCC1
output: 97

* * *

Tested on: NCI-H1975
Assay: Antiproliferative activity against human NCI-H1975 cells assessed as inhibition of cell viability after 72 hrs by CCK-8 assay
Assay type: functional, cell-based
Conditions: NCI-H1975, 72 h
Reported IC50 values follow for various compounds

// below: answered compounds
> print(dat)
                                   compound  target.desc  result.type    result
1   C[S+]([O-])CCCCN=C=S (stereo not drawn)    NCI-H1975         IC50   > 10 µM
2  CN(C)C(=O)c1cc2cnc(Nc3ccc(NC(=O)CCCCCCCN=C=S)cc3)nc2n1C1CCCC1    NCI-H1975         IC50  0.837 µM

input: Give its IC50 value. Item: CN(C)C(=O)c1cc2cnc(Nc3ccc(N4CCNCC4)cn3)nc2n1C1CCCC1
output: > 10 µM

* * *

Target: CDK6/cyclin D3 (Homo sapiens) (UniProt P30281+Q00534)
Assay: Inhibition of recombinant full-length human CDK6/cyclinD3 at 500 nM using histone H1 as substrate measured after 40 mins in presence of [gamma33P]ATP by scintillation counting method relative to control
Type: protein-complex assay
result type: inhibition (%)
Answer in %, number only, no unit symbol.

// below: answered molecules
> print(dat)
                                item.smiles  numeric.readout
1  CN(C)C(=O)c1cc2cnc(Nc3ccc(N4CCN(C(=O)CCCCCCCN=C=S)CC4)cn3)nc2n1C1CCCC1               62
2  CN(C)C(=O)c1cc2cnc(Nc3ccc(C(=O)NCCCN=C=S)cn3)nc2n1C1CCCC1               54
3  CN(C)C(=O)c1cc2cnc(Nc3ccc(N=C=S)cc3)nc2n1C1CCCC1               43

input: Give its inhibition value. Item: CN(C)C(=O)c1cc2cnc(Nc3ccc(C(=O)NCCCCCCCN=C=S)cn3)nc2n1C1CCCC1
output: 46

input: Entry to check: CN(C)C(=O)c1cc2cnc(Nc3ccc(NC(=O)CCCCCCCN=C=S)c(F)c3)nc2n1C1CCCC1
output: 51

input: Entry to check: CN(C)C(=O)c1cc2cnc(Nc3ccc(NC(=O)CCCCCCCN=C=S)cc3)nc2n1C1CCCC1
output: 48
